Test system: MS2 coat protein
assay-overview: apparent KD of MS2 coat protein; designed switch direction (-1 OFF switch, 1 ON switch): -1; higher = weaker reporter binding
test-settings: input ligand: none
Field: apparent KD of MS2 coat protein. Provide a value for each of the sequences that follow.
Respond with a number, then the unit of measure.

Requested field: apparent KD of MS2 coat protein. Item: AAAGACAUGAGGAUCACCCAUGUACUGGUGGAGCUCGUGAGGCAGGAUAUCGCGUGCGAAGCUCGCGAGAAGGGCCAGGAAUUU [Cexela] (Eterna round: R96, puzzle: Exclusion NG 3)
109 nM

Requested field: apparent KD of MS2 coat protein. Item: CUAAAUCAUGUAGGAUAUGCGUGGCAAAGCUAUGCAGAAGGACAUGAGGAUCACCCAUGUGCUUCCGUCUGAGAACAGACGGUA [Mat - Exclusion NG 1 - Mod of JL - D23] (Eterna round: R96, puzzle: Exclusion NG 1)
68.2 nM

---

Test system: MS2 coat protein
assay-overview: apparent KD of MS2 coat protein; designed switch direction (-1 OFF switch, 1 ON switch): -1; higher = weaker reporter binding
test-settings: input ligand: FMN 200 uM
reported-property: apparent KD of MS2 coat protein

Requested field: apparent KD of MS2 coat protein. Item: CUGUGCAUAGGAUAUGAAAGAAGAAACAUGAGGAUCACCCAUGUAGCCUCAAAUCUUAUGUCAGAAGGAUGCGUUA [Default title] (Eterna round: R97, puzzle: Exclusion 5)
15.9 nM

Requested field: apparent KD of MS2 coat protein. Item: CAACGUAGUAAGGAUAUCCGGCAAAAGGCUACAGGAGAAGGUACUACAUGAGGAUCACCCAUGUGGAACUGUAA [EX6 B.7] (Eterna round: R97, puzzle: Exclusion 6)
16.8 nM

Requested field: apparent KD of MS2 coat protein. Item: UUAAUUAGCUCGCUAGAUCCUCACAUGAGGAUCACCCAUGUGCAGGAUAUCAGCUCGAUUAGAGCUGAGAAGGGCACUGCGAGC [ExNG3/10-A1] (Eterna round: R96, puzzle: Exclusion NG 3)
160 nM

Requested field: apparent KD of MS2 coat protein. Item: UAUAAGAUAGGAUAUACAGGCCCGUCUUCAUAUUGAUCCCGACAUGAGGAUCACCCAUGUAGAAGGAUCGUAUA [Mod 23 - Jieux - Exclusion 2] (Eterna round: R97, puzzle: Exclusion 2)
23.3 nM

Requested field: apparent KD of MS2 coat protein. Item: AGGUCACAUGAGGAUCACCCAUGUGAGGAUAUUUACUCAAGAGCUUCGGCUCUCAAGUGAAGAAGGCGCAAUGA [EX1 #53] (Eterna round: R97, puzzle: Exclusion 1)
34.6 nM

Requested field: apparent KD of MS2 coat protein. Item: GGGCUGCGACGCAGCCAAACAAAACAUGAGGAUCACCCAUGUCAGGAUAUACCGAUGCAGCAUCUGUAGAAGGGACAGAUCCAA [Onlaorre] (Eterna round: R96, puzzle: Exclusion NG 3)
145 nM

Requested field: apparent KD of MS2 coat protein. Item: ACAAGCUUUUAGAUUUUCAACAUGAGGAUCACCCAUGUUCGUCUUGUGCUAGUGCGAGUGCGGUGUACUCGUAUUAG [JL TOV1 3.82 sellena mod] (Eterna round: R97, puzzle: Sensor, turn-off variant 1)
18.5 nM

Requested field: apparent KD of MS2 coat protein. Item: ACAUAUGUUAGAGGAUCCUACAUGAGGAUCACCCAUGUCGGUAUAAAACUCACACGGUCAACGCUUUUUGUUCGCUA [Eternabot (L1) Solution 2] (Eterna round: R97, puzzle: Sensor, turn-off variant 1)
30.5 nM

Requested field: apparent KD of MS2 coat protein. Item: ACUCCCAUCGUGAGGAUAUUGAAGCGGGAAGCCGGCAAGAAGGUACAUGAGGAUCACCCAUGUGUGAACAGGAC [Eternabot (L1) Solution 48] (Eterna round: R97, puzzle: Brourd's mod of Exclusion 4)
14.5 nM

Requested field: apparent KD of MS2 coat protein. Item: UGUUGUCGCGCAGGAUAUGAGGAUCACCCAUGUAGAGGAUAUGAAAAGAAGGCUCUGAGGAUUACCCAGAAGGGCGGGACAACU [pwkr exNG2 2xF5 2xFMN.25] (Eterna round: R96, puzzle: Exclusion NG 2)
800 nM

Requested field: apparent KD of MS2 coat protein. Item: AGUACUAACUCGAAAGUGUUAGUACAAUAAGCUUGUGAAACAUGAGGAUCACCCAUGUCCUCAUAAGCUCGUCUUAU [salish99_TOv2_r3_022] (Eterna round: R96, puzzle: Sensor v3, turn-off variant 2)
16 nM

Requested field: apparent KD of MS2 coat protein. Item: GCGGACUAGUACGUGAGUACUGAGACAUGAGGAUCACCCAUGUAGGAUAUCGAUUCGAAACGAAUCGAGAAGGGCAUAGUCCGC [JL denovo 10] (Eterna round: R96, puzzle: Exclusion NG 3)
19.7 nM

Requested field: apparent KD of MS2 coat protein. Item: UAGUGAAACACAGGAUAUCGCCUCUUAUUACAUGAGGAUCACCCAUGUUUAGUUAGUUACAUGUACGAGAAGGGUGAAGUAGUU [JR_ExcNG2_Sub040] (Eterna round: R96, puzzle: Exclusion NG 2)
1110 nM

Requested field: apparent KD of MS2 coat protein. Item: AUAAGUGAUAAGGAUAUUACUAGCUGCGGCUAGUGAGAAGGUAUCACAUGAGGAUCACCCAUGUGUUCCAAUAA [Ex6/7-B3] (Eterna round: R97, puzzle: Exclusion 6)
254 nM

Requested field: apparent KD of MS2 coat protein. Item: UUUUUAUAUGAAGGAUAUACUUAACAUGAGGAUCACCCAUGUGGUGUUGUGAGUGAGUGAGUUUAGUAGAAGGUCAAGUCUUUU [JMF's solution 36] (Eterna round: R96, puzzle: Exclusion NG 2)
555 nM

Requested field: apparent KD of MS2 coat protein. Item: UCCUGACAUGAGGAUCACCCAUGUAAGGAUAUUAAAACGACUGAACAACUCAGCGGUAUAAGAAGGUACAUGUA [EX1 A.10] (Eterna round: R97, puzzle: Exclusion 1)
12 nM

Requested field: apparent KD of MS2 coat protein. Item: UAAGAAUGCAAGGAUAUGGCUAGGUAAAACAUGUCAGAAGGUGCUACAUGAGGAUCACCCAUGUGUCUCGUGCG [Eternabot (L1) Solution 2] (Eterna round: R97, puzzle: Exclusion 6)
75.8 nM

Requested field: apparent KD of MS2 coat protein. Item: UUGAACUUAGGAUAUUGGUUCAGCUACAUGAGGAUCACCCAUGUGGUACCUAGCUGAGGUCAAGAAGGGAGUGUUG [EX5 B.12] (Eterna round: R97, puzzle: Exclusion 5)
25.6 nM
